Numbers sourced from paper PMC10421270.

Property: pIC50; scope: individual compounds
biological target: hAChE (Homo sapiens, UniProt P22303); construct: purchased Sigma Aldrich (Milan, Italy); assay: biochemical; assay type: biochemical; details: human AChE; mean ± SD of three independent measurements; read-out: AChE IC50
Sequence (P22303 32-614): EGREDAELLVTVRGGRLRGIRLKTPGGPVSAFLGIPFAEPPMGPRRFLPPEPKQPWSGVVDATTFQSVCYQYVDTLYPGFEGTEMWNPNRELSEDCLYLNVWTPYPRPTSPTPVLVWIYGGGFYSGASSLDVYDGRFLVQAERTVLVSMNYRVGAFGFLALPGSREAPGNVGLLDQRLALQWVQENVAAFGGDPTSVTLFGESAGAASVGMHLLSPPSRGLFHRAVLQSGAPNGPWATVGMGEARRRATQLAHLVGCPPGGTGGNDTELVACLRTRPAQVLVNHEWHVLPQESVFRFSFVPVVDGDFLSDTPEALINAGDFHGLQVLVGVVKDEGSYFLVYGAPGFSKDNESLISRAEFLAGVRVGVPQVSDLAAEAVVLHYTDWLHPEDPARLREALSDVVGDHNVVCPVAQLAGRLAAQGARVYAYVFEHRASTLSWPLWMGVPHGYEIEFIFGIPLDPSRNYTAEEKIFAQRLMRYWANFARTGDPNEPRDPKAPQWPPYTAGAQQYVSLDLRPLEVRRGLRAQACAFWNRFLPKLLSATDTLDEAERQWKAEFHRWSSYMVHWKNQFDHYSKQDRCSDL
pIC50: −log10 of the molar value.

Chemical structure	pIC50
COc1ccc2c(c1)CC(=Cc1ccc(CN(C)Cc3ccccc3)cc1)C2=O	6.87
COc1ccc2c(c1)C/C(=C\c1ccc(CN(C)C)cc1)C2=O	6.81
CCCCN(C)Cc1ccc(/C=C2\Cc3cc(OC)ccc3C2=O)cc1	6.99
